experiment: yeast display, Sf9 membrane polyspecificity reagent, FACS + sequencing; frameworks hold sequencing errors
experimental-readout: polyreactivity (PSR sort gate)

Please review the entries below; each comes with its answer.
QVQLVESGGGLVHAGGSLRLSCASSGSTFRPYAMGCYRQAPGKERELVAAIRKIGGRTYYADSVKGRFTISRDNANNTVYLQMNSLKPEDTAVYNCNKRIGGGVHAYNYWGQGTQVSVSS: low polyreactivity
QVQLVESGGGLVQAGGSLRLSCAASGRISRGNAMGWYRHAPGKEREFVAAISWSGDGTYYADSVKGRFTISRDNAKNTVYLQMNSLKPEDTAVYYCADGATPRYSKYDYWGQGTQGTVSS: low polyreactivity
QVQLVESGGGLVQAGGSLRLSCAASGRIFTNNAMGWYRQEPGKERELVAAISRSGGRTYYADSVKGRFTISRDIAKNTVYLQMNSLKPEDTAVYYCAAVHLFYGYNSPFTMDYWGQGTQVTVSS: high polyreactivity
QVQLVESGGGLVQEGGSLRLSCAASGFTFAYYAMGWYRQAPGKERELVASISYNGGITNYADSVKGRFTISRYNAKNTVYLQMNSLKPEDTAVYYCAAGVFFFTFDYWGQGTQVTVSS: low polyreactivity
QVQLVESGGGLVQAGGSLRLSCAASGSIFPAYAMGWYRQAPGKERELVAASTDRGGSTSYADSVKGRFTISRDNAKNTVYLHKNSLKPEDT: low polyreactivity
QVQLVESGGGLVQAGGSLRLSCAASGSTFLSYAMGWYIQAPGKEREFVAAIPSIVGSTYYADSVKGRFTISRDNAKNTVYLQMNSLKPEDTAVYYCATDSYPGLNPDFDYWGQGTQVTVSS: low polyreactivity
QVQLVESGGGLVQAGGSLRLSCAASGLIFAWYAMGWYRQAPGKERELVAAITGTGSSTYYADSVKGRFTISRDNAKNTVYLQMNSLKPEDTAVYYCNRGYFNSRTPTFDYWGQGTQVTVSS: low polyreactivity
QVQLVESGGGLVQAGGSLRLSCAASGSIILRYAMGWYRQATGKERELVAAISNRGGSTYYADSVKGRFTISRDNAKNTVYLQMNSLKPEDTAVYYCAVRSTNERSAGKRRYYYWGQGTQVTVSS: high polyreactivity
QDQLVESGGGLVQAGGSLRLSCAASVSTFYVYAMGWYRQAPGKERELVAAITRGGSTYYADSVKGRFTISRDNAKNTVYLQMNSLKPEDTAGYYCAADYGSRWGYDYCGQGTQVTVSS: low polyreactivity
QVQLVESGGGLVQAGGRLRLSCAASGRTFYGYAMGWYSPAPGKERELVAAITNGGRTYYADSVKGRFTISRDNAKNTVYLQMNSLKPEATAVYYCAAGPGRGRSTLGSYYWGQGTQVTVSS: high polyreactivity

Recorded polyreactivity (PSR sort gate) of QVQLVESGGGLVQAGGSLRLSCAASGFIFSYYAMGWYRQAPGKERELVAAISRSGGSTYYADSVKGRFTISRDNAKNTVYLQMNSLKPEDTAVYYCAARYWRRYGQGYRYDYWGQGTQVTVSS , please.
high polyreactivity

Recorded polyreactivity (PSR sort gate) of QVQLVESGGGIVQAGGSLRLSCAASGRTFRGNAMGWYRQAPGKERELVAAIRYRGGSTYYADSVKGRFTISRDNAKNTVYLQMNSLKPEDTAVYDCARRYTVHTQHYDYWGQGTEVTVSS , please.
high polyreactivity

Recorded polyreactivity (PSR sort gate) of QVQLVESGGGLVQAGGSLRLSCAASGNTFGRYAMGGYRQAPGKERELVAAISWSGGSTYSADSVKGRFTISRDNAKNSLYLQMNSLKPEDTAVYYCAANSWRGFEYWGQGTQVTVSS , please.
high polyreactivity

Recorded polyreactivity (PSR sort gate) of QVQLQESGGGLVQAGGSLRLSCAASGSIFHLHIMCWYRQAPGKERESVAAISYGTSTYYADSVKGRFTICRDNAKNTLYLQMNSPKPDDTAVYYCAALFLVSKHHHYWGEGTQVTVSS , please.
low polyreactivity

Recorded polyreactivity (PSR sort gate) of QVQLQESGGGLVQAGGSLRLSCAASGSIFHLHIMCWYSQAPGKERESVAAISYGTSTYFADSVKGRFTICRDNAKNTVYLQMNSPKPYDTAVYYCAALFLVSKHHHYWGEGTQVTVSS , please.
low polyreactivity

Recorded polyreactivity (PSR sort gate) of QVQLVESGGRLVQAGGSLRLSCAASGFTFDVYAMGWYRQAPGKERELVASITLRDGSTYYADSVKGRFTISRDNAKNTVYLQMNSLKPEDTAVYYCAADDSRATYEFEYWGQGTQVTVSS , please.
low polyreactivity

Recorded polyreactivity (PSR sort gate) of QVQLQESGGGLEPAGGSLRLSCAASGTISVHASMGWYRQAPGKERELVAGITDGANTYYADSVKGRFTISRDNSKNTVYLQMNSLKPEDTAVYYCAAYYGTAFHFTYWCQGTQVTVSS , please.
low polyreactivity

Recorded polyreactivity (PSR sort gate) of QVQLVESGGGLVQAGGSLRLSCAASGSIFDHTNAMGSYRQAPGKERELVAAITSGSSTNYADSVKGRFTISRDNAKKTVDLQMNSLKPEDTAVYYCNADRFHSGIFDYWGQGTQVTVSS , please.
low polyreactivity

Recorded polyreactivity (PSR sort gate) of QVQLVESGGGLVQAGGSLRLSCAASGSIFSYNLMGWYRQAPGKERELVAAITRSCGSTYYADSVKGRFTISRDNAKNTVYLQMNSLKQEDTAVYYCAVGWADQDPFIMDFWGQGTQVTVSS , please.
low polyreactivity

Recorded polyreactivity (PSR sort gate) of QVQLVESGGGKVQAGGSLRLSCAASGNTFTSNALGWYRQAPGKERELVAAISISGSTNYADSVKGRFTISRDNAKNSVYLQMNSLKPEDTAVYSCAARVGYTAWRRYNYWGQGTQVTVSS , please.
high polyreactivity

Recorded polyreactivity (PSR sort gate) of QVQLVESGGGLVQAGGSLRLSCAASGRTFFKYVKGWYRQAPGKERELVAAISSGGSTNYADSVKGRFTISRDNAKNTVYLQMNSVKPEDTAVYSCAASRYRGYYYWGQGTQVTVSS , please.
high polyreactivity

* * *

assay: yeast display, Sf9 membrane polyspecificity reagent, FACS + sequencing; frameworks hold sequencing errors
experimental-readout: polyreactivity (PSR sort gate)

Please review the entries below; each comes with its answer.
QVQLVESGGGLVQAGGSLRLSCAASGFIFYFYAMGWYRQAPGKERELVAAISSGGSTNYADSVKGRFTISRDNAQNTVYIQMNSQKPEDTAVYYCNKSGYSKYFLNDYTYWGQGTQVTVSS: low polyreactivity
QVQLVESGGGLVQAGGSLRLSCAASGSIFYYYGMGWYRQAPGKERELVAGISSRGGRTYYADSVKGRFTISRDNAKNTVYLQMNSLKPEDTAVYYCAADRYYYAYRYYPSGYWGQGTQVTVSS: low polyreactivity
QVQLVESGGGLVQAGGSLRLSCGASGRIFWDNAMGWYRQAPGKERELVAAIDYRGGNTNYADSVKGRFTISRDNAKNTVYLQMNRLKTEDTAVYYCNAEWAVRYPGYDYWGQGTQVTVSS: low polyreactivity
QVQLVESGVGLVQAGGSLRLSCAASGSILFYYAMGWYRQAPGKERELVAAITYSGARSYYADSVKGRFTISRDNAKNTVYLQMNSLKPEDTAVYYWAADQVYGIGYEYWGQGTQVTVSS: low polyreactivity
QVQLGESGGGLFQAGGSLRLSCAASGRTFVTYAMVWYRQAPGKERELVAAISKRGSRTYYADSVKGRFTISRDNAKNTVYLQMNTLKPEDTAVYYCAVVYSIYTRGYDYWGQGTQVTVSS: high polyreactivity
QVQLVESGGVLVQAGGSLRLSCAASGFIFYSYDMGWYRQAPGKERELDAAIRSDGSTYYADTVKGRFTISRDNAKNTVYLQMYSLKPEDTAVYDCAAKYGVRYWHYYSWTNDYWGQGTQVTVSS: low polyreactivity
QVQLVESGGGLVQAGGSLRLSCAASGSTFNYYTMGWYRQEPGKETELVAAISGRVSITYYADSVKGRFTISRDNAKNTVYLQMISLKPEDTAVYYCAAGPGYVRYPRSGVWYVTLYDYWGQGSQVTVSS: high polyreactivity
QDQHVESGGGLVQAGGSLRLSCAASGSNFVINAMGWYRQAPGKEREWVAAITSSGGSTYYADSVKGRFTISRDNAKNTVYLQMNSLKPEDTAVYYCAAYVRTAFGRMNYWGQGTLVTVSS: high polyreactivity
QVQLVESGGGLVQAGGSLRLSCAASGNIFVRYVMGWYRQAPGKERELVAAITTSGGSTRYADSVKGRFTISRDNAKNTVYLQMNSLKPEDTAVYYCAARFRYRHLTYGYWGQGTQVTVSS: high polyreactivity
QVQLVESGGGLVQAGGSLRLSCAASGRTSSINAMGWYRKAPGKERELVAVITGGGRTSYADSVKGRFTISRDNAKNTVYLQMNSLKPEDTAVYYCNATRSYYGYYYWGQGTQVTVSS: high polyreactivity

Recorded polyreactivity (PSR sort gate) of QVQLVESGGGLVQPGGSLRLSCAASGSIYTNAMGWYRQAPGKERELVAAISWSGGRTYYADSVKGRFTISRDNAKNTVYFQLNSLKPEDTAVYYCNTRGTRIASGHYYWGQGTQVTVSS , please.
high polyreactivity

Recorded polyreactivity (PSR sort gate) of QVQLVESGGGLVQAGGSLRLSCAASGSTFRGYAMGWYRKATGKERELVATNSGSDGTTYYADSVKGRFTISRENAKNTVYLQMNSLKPEDTAVYYCAAGETFEMYYWGQGTQVTVSS , please.
low polyreactivity

Recorded polyreactivity (PSR sort gate) of QVQLVESGAGLVQAGGSLRLSCAASGSTFRPNVMGWSRQAPGKERELVAAITYSGRSTYYADSVKGRFTISRDNAKNTVYLQMNTLKPEDTAVYYCAARTWLRYCYWGQGTQVTVSS , please.
high polyreactivity

Recorded polyreactivity (PSR sort gate) of QVQLVESGGGLFQAGGSLRLSCAASGRIFGSYAMGWYRQAPGKERELVAAIFSAGSTYYADSVKGRFTISRDNAKNTVYLQMNSLKPEDTAVYYCAAGAYWPWGEDYWGQATQVTVSS , please.
high polyreactivity

Recorded polyreactivity (PSR sort gate) of QVQLVESGGGLVQAGGSLRLSCAASGSIIVRNAMGWYRQAPGKERELVAAISKSGGSTYYADSVKGRFTISRDNAKNTVYLQMNSLKPEDTAVYYCAVYPRSTLRTFQRDYWGQGTQVTVSS , please.
high polyreactivity

Recorded polyreactivity (PSR sort gate) of QVQLVESGGGLVQAGGSLRLSCAASGITFKGYTMGWYRQAPGTERELVATISRGGRTYADSVKGRFTISRDNAKNTVYLQMNSLKPEDTAVYYCAADKYWAQNDYWGQGTQVTVSS , please.
low polyreactivity

Recorded polyreactivity (PSR sort gate) of QVQLVESGGGLVQAGGSLRLSCAASGYTLKYYAMGWYRQAPGKERELVAVISRGGSTYYADSVKGRFTISRDNAKNTVDLQMNSLKPEDTAVYYCAKRPTQGYYPYGYWGQGTQVTVSS , please.
high polyreactivity

Recorded polyreactivity (PSR sort gate) of QVQLVESGGGLVQAGGSLRLSCAASGFTFWQYAMGSSRTAPGKERELVAAISSRGGSTYYADSVKGRFTISRDKAKNTVYLQMNSLKPEDTAVYYCNARANGFKDGYWGQGTQVTVSS , please.
high polyreactivity

Recorded polyreactivity (PSR sort gate) of QVQLVESGGGLVQAGGSLRLSCAASGSILYYYTMGWYRQAPGKERELVAAINTSGGITYYADSVKGRFTISRDNAKNTVYLQMNSLKPEDTAVYYCAAEGPEIKYYYWGQGTQVTVSL , please.
low polyreactivity

Recorded polyreactivity (PSR sort gate) of QVQLEESGGGLVQAGGSLRLSCAASGLIFVHYTMGWYRQAPGKERELVAAISRSGGSTSYADSVKGRFTISRDTAKNSVYLQMNSLKPEDTAVYYCAAVGSRSGLTPYEYWGQGTQVTVSS , please.
high polyreactivity

Recorded polyreactivity (PSR sort gate) of QVQLEETRGCLVQAGGSLRLSCAASGIILYAYAMGWYRQAPRKERELVAAITRRGGRTYYADSVKGRFTISRDNAKYTVYLQMNSLKPVDTAVYYGATVQSGRVRTYDYWGQGTLVTVSS , please.
high polyreactivity
